# target-desc: Acetylcholinesterase (Homo sapiens) (UniProt P22303)
# Sequence (P22303 whole entry, looked up): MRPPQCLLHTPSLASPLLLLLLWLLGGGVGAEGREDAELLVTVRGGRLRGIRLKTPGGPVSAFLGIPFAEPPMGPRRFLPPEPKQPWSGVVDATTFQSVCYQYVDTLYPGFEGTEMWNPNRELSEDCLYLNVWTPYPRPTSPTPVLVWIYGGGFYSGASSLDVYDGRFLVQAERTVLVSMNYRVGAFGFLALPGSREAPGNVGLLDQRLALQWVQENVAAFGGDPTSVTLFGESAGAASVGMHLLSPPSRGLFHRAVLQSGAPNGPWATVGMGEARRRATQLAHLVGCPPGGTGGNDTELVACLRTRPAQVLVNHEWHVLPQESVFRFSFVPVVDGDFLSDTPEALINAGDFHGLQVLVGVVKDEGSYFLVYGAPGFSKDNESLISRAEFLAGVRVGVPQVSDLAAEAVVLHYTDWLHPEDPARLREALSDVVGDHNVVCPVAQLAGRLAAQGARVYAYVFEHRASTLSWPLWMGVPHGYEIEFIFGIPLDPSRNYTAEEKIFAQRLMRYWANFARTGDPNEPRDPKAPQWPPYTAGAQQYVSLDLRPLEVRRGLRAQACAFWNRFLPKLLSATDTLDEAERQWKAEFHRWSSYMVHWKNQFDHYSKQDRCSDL
# assay: Acetylcholinesterase (AChE) small molecule antagonists: colormetric cell-based qHTS assay (AID 1347395); note: nearly all actives have a fitted effect of over 30% in size
# condition-details: SH-SY5Y cells AChE activity, colorimetric (Ellman); series mostly up to 115 µM
Records with an inconclusive call do not appear. Activity calls are given as the source filed them. Calls come from the whole dose curve.
Possible outcomes: active, inactive

[[record]]
molecule = "NC(=S)N/N=C/c1cccnc1"
discrete_label = "inactive"

[[record]]
molecule = "CC(=O)O[C@@H]1CC2CCC1(C)C2(C)C (some centres not stated)"
discrete_label = "inactive"

[[record]]
molecule = "Nc1ccc([N+](=O)[O-])cc1O"
discrete_label = "inactive"

[[record]]
molecule = "CN(C)CCN(C)CCO"
discrete_label = "inactive"

[[record]]
molecule = "CCCCCN(CCCCC)C(=O)C(CCC(=O)O)NC(=O)c1ccc(Cl)c(Cl)c1 (configuration not stated)"
discrete_label = "inactive"

[[record]]
molecule = "COC(=O)c1ccccc1C(=O)c1ccc(OCCN2CCCCC2)cc1"
discrete_label = "inactive"

[[record]]
molecule = "CCO[Si](OCC)(OCC)OCC"
discrete_label = "inactive"

[[record]]
molecule = "CCc1cc(S(=O)(=O)O)c2cc(C(C)C)cccc1-2"
discrete_label = "inactive"

[[record]]
molecule = "CN1CCN(c2ccccc2/C=C2\\SCCN(c3ccc(Cl)c(Cl)c3)C2=O)CC1"
discrete_label = "inactive"

[[record]]
molecule = "CCCCOCCOC(=O)COc1nc(Cl)c(Cl)cc1Cl"
discrete_label = "inactive"

[[record]]
molecule = "COC(C)=O"
discrete_label = "inactive"

[[record]]
molecule = "CCOc1ccc2nc3cc(N)ccc3c(N)c2c1"
discrete_label = "active"

[[record]]
molecule = "C=C(C)C(=O)OCCOCCOC(=O)C(=C)C"
discrete_label = "inactive"

[[record]]
molecule = "Cc1ccc(/C=N/n2c(-c3ccccc3)csc2=S)cc1"
discrete_label = "inactive"

[[record]]
molecule = "C1=COCCC1"
discrete_label = "inactive"

[[record]]
molecule = "CSc1ccc2c(c1)C(N1CCN(C)CC1)Cc1ccccc1S2 (configuration not stated)"
discrete_label = "inactive"

[[record]]
molecule = "CCCCC1=NC2(CCCC2)C(=O)N1Cc1ccc(-c2ccccc2-c2nn[nH]n2)cc1"
discrete_label = "inactive"

